- Species on record: Homo sapiens
- method: Half life period in human plasma at 25 degree Celsius temperature (pH 7.4)
result-type: half-life (min)
Number only, in min; omit the unit.

Req: Using the record for `CC(=O)Nc1ccc(OC(=O)Nc2cc(Cl)ccc2O)cc1` , state its measured half-life.
Resp: 1.1

----------
- Species on record: Homo sapiens
- method: Half life period in human plasma at 37 degree Celsius temperature (pH 7.4)
The following compounds are listed with their measured half-life values.
Number only, in min; omit the unit.

Req: Using the record for `O=C(Nc1cc(Cl)ccc1O)OCC(Cl)(Cl)Cl` , state its measured half-life.
Resp: 10.1

---
Req: Using the record for `O=C(Nc1cc(Cl)ccc1O)OCC(Cl)Cl` , state its measured half-life.
Resp: 105

----------
- method: Half life period in phosphate buffer at pH 7.4
- Assay type: ADME
- condition-context: phosphate buffer
# label = TRUE if half-life >= 100 min else FALSE

The examples below pair each entry with its known result.
Req: Tell me whether half-life is at least 100 min here: `CC(=O)Nc1ccc(OC(=O)Nc2cc(Cl)ccc2O)cc1`
Resp: FALSE

Req: Tell me whether half-life is at least 100 min here: `O=C(Nc1cc(Cl)ccc1O)OCCCl`
Resp: TRUE

Req: Tell me whether half-life is at least 100 min here: `O=C(Nc1cc(Cl)ccc1O)Oc1ccccc1`
Resp: FALSE

Req: Tell me whether half-life is at least 100 min here: `C#CCOC(=O)Nc1cc(Cl)ccc1O`
Resp: TRUE

Req: Tell me whether half-life is at least 100 min here: `CC(=O)Nc1cccc(OC(=O)Nc2cc(Cl)ccc2O)c1`
Resp: FALSE

# input for lookup
Req: Tell me whether half-life is at least 100 min here: `CC#CCOC(=O)Nc1cc(Cl)ccc1O`
Resp: TRUE

----------
- method: Half life period in phosphate buffer at pH 7.4 & 25 degrees C
- Assay type: ADME
result-type: half-life (s)
Number only, in s; omit the unit.

Req: Using the record for `CC(=O)Nc1ccc(OC(=O)Nc2cc(Cl)ccc2O)cc1` , state its measured half-life.
Resp: 36
